# EXPERIMENT_SUMMARY: Inhibition of DNA polymerase assessed as reduction in PCR products at MIC for Pseudomonas aeruginosa PAO1 H103 by qPCR
Active and inactive are the calls of the source. The rule behind the calls is not given here.
Outcome codes: active, inactive

- SUBSTANCE: "H-RLARIVVIRVAR-NH2"
  CLASS: "active"
- SUBSTANCE: "POLYMYXIN B"
  CLASS: "inactive"
- SUBSTANCE: "H-RRWKIVVIRWRR-NH2"
  CLASS: "active"
- SUBSTANCE: "H-KWKSFLKTFKSAVKTVLHTALKAISS-OH"
  CLASS: "inactive"

====

# EXPERIMENT_SUMMARY: Inhibition of DnaK assessed as reduction in ATP turnover at MIC for Pseudomonas aeruginosa PAO1 H103 by ATPase assay
Calls of active or inactive are those of the source. No cut-off for these calls is given here.
Outcome codes: label 1 (active), label 0 (inactive)

- SUBSTANCE: "POLYMYXIN B"
  CLASS: "label 0"
- SUBSTANCE: "H-RRWKIVVIRWRR-NH2"
  CLASS: "label 1"
- SUBSTANCE: "H-RLARIVVIRVAR-NH2"
  CLASS: "label 1"
- SUBSTANCE: "H-RLWRIVVIRVAR-NH2"
  CLASS: "label 1"
- SUBSTANCE: "H-KWKSFLKTFKSAVKTVLHTALKAISS-OH"
  CLASS: "label 0"
